The reported measurements were obtained from patent US20250340623A1.

molecular target: alpha-synuclein fibrils (UniProt P37840 1-140); test: SPR, captured mAb
TEST READOUT: kon (M⁻¹ s⁻¹)
Provide only the numeric value, understood in M⁻¹ s⁻¹.

Kindly note the recorded kon for ACI-8032-6313G2-Ab1 (antibody, V domains shown, mouse hybridoma mAb; VH/VL only; also called 6313G2A10) VH: EVQLQQSGPELVKPGASVKISCKASGYTFTDYYMNWVKQSHGKSLEWIGDIDPNNGVTSYSQKFKGKATLTVDKSSSTAYMELRSLTSEDSAVYYCARTGYYGTSLYYAMDYWGQGTSVTVSS VL: DIVMSQSPSSLAVSAGEKVTMNCKSSQSLLNSRTRKNYLAWYQQKPGQSPKLLIYWASTRESGVPDRFIGSGSGTGFTLTISSVQAEDLAVYYCKQSYDLWTFGGGTKLEIK , which is 338

Kindly note the recorded kon for ACI-8031-6207G10-Ab1 (antibody, V domains shown, mouse hybridoma mAb; VH/VL only; also called 6207G10E6) VH: QVQLQQSGAELVKPGASVKISCKASGYAFSSYWMNWVKQRPGKGLEWIGQIYPGDGDTNYNGKFKGKATLTADRSSSTAYMQLSSLTSEDSAVYFCAITHYDYWGQGTTLTVSS VL: DILLTQSPAILSVSPGDRVSFSCRASQSIGTRIHWYQQRTNGSPRLLIKYASESISGTPSRFSGSGSGTDFTLSINSVESEDIADYYCQQSNSWPLTFGAGTKLELK , which is 11300

Kindly note the recorded kon for ACI-7089-4415G5-Ab1 (antibody, V domains shown, mouse hybridoma mAb; VH/VL only; also called 4415G5A11) VH: QVQLQQSGAELARPGASVKVSCKASGYTFTSSGISWLKHRTGQGLEWIGDIYPRSGNTYYNEKFKDKATLTADKSSSTAYMELRSLTSEDSAVYFCASGNYWGQGTTLTVSA VL: DIVITQDDLSNPVTSGESVSISCRSSKSLLYKDGKTYLNWFLQRPGQSPQLLIYLMSTRASGVSDRFSGSGSGTDFTLEISRVKAEDVGVYYCQQLLEYPLTFGAGTKLELK , which is 242000

Kindly note the recorded kon for ACI-8030-6106F5-Ab1 (antibody, V domains shown, mouse hybridoma mAb; VH/VL only; also called 6106F5B10) VH: QVQLQQSGPELVKPGASVKISCKASGYSFTTYYIHWMKQRPGQGPEWIGWIYPGRGYTKYNEKFKDKAAQTADTSSNTAYMQLSSLRSEDSAVYYCARDWETGFPYWGQGTLVTVSA VL: DIVLTQSPASLAVSLGQRATISCKASQSVDYGGDSWLNWYQQKPGQPPKLLIYAASNLDSGIPARFGGSGSGTDFTLNIHPVEEEDAATYYCQQSGEDPFTFGGGTNLEIK , which is 13900

Kindly note the recorded kon for ACI-7079-3101E3-Ab1 (antibody, V domains shown, mouse hybridoma mAb; VH/VL only; also called 3101E3C9) VH: QVQLKESGPGLVAPSQSLSITCTVSGFSLTRYIINWVRQPPGKGLEWLGVIWTGGGTDYNSALKSRLSISKDNSKSQVFLKMNSLQTDDTARYYCAREYGYDGAWFAYWGQGTLVTVSA VL: DVLMTQTPLSLPVSLGDQASISCRSSQTIVHSNGNTYLEWYLQKPGQSPKLLIYKVSNRFSGVPDRFSGSGSGTDFTLKISRVEAEDLGVYYCFQGSHVPYTFGGGTKLEIK , which is 9380

Kindly note the recorded kon for ACI-8032-6301A10-Ab2 (antibody, V domains shown, mouse hybridoma mAb; VH/VL only; also called 6301A10E12) VH: QVQLQQSGAELARPGASVKLSCKASGYTFTSYGISWVKQRTGQGLEWIGEIYPRSGNTYYNEKFKGKATLTADKSSSTAYMELRSLTSEDSAVYFCASESYYGDYDWYFDVWGTGTTVTVSS VL: DVLMTQTPLSLPVSLGDQASISCRSSHSIEHSNGNTYLEWCLQKPGQPPKFLIYKVSNRFSGVPDRFSGSGSGTDFTLRISRVEAEDLGVYYCFQGSHVPPTFGGGTKLEIK , which is 71800

Kindly note the recorded kon for ACI-8032-6314A3-Ab3 (antibody, V domains shown, mouse hybridoma mAb; VH/VL only; also called 6314A3E4) VH: QVQLQQSGAELARPGASVKLSCKASGYTFTSYGVSWVKQRTGQGLEWIGEIYPRSGNTYYNEKFKGKATLTADKSSSTAYMELRSLTSEDSAVYFCASESYYGDYDWYFDVWGTGTTVTVSS VL: DVLMTQIPLSLPVSPGDQVFISCRSSQSIVHSNGNTYLEWYLQKPGQSPKPLIYKVSNRFSGVPDRFSGSGSGTDFTLKISRVEAEDLGVYYCFQGSHVPPTFGGGTKLEIK , which is 7830

Kindly note the recorded kon for ACI-7079-3112H1-Ab1 (antibody, V domains shown, mouse hybridoma mAb; VH/VL only; also called 3112H1F3) VH: EVQLQQSGPELVKPGASVKISCKASGYTFSDYFMNWVKQSHGKSLEWIGDINPNNGGSSYIQKFKGKATLTVDKSSTTAYMELRSLTSEDSAVYYCARGSNYAMDSWGQGTSVTVSS VL: DIVMSQSPSSLAVSAGEKVTMSCKSSQSLLNSRTRKNYLAWYQQKPGQSPKLLIYWASTRESGVPDRFTGSGSGTDFTLTISSVQAEDLAVYYCKQSYDLWTFGGGTKLEIK , which is 11200

Kindly note the recorded kon for ACI-7079-3106F2-Ab1 (antibody, V domains shown, mouse hybridoma mAb; VH/VL only; also called 3106F2C8) VH: EVQLQQSGAELVRPGASVKLSCTASGFNVKDDYMHWVKQRPEQGLEWIGWIDPENGDTEYASKFQGKATLTADTSSNTAYLQLSGLTSVDTAVYYCTTAGTSPYYFDYWGQGTTLTVSS VL: DIVMTQSQKFMSTSVGDRVSVTCKASQNVGTNVAWYQQKVGQSPKALIYSASYRYSGVPDRFTGSGSGTDFTLTISNVQSEDLADYFCQQYNSYPLTFGSGTKLEIK , which is 11700

Now examine the next entry.
Kindly note the recorded kon for ACI-7067-4813-R4A-G7-rec1 (antibody, mouse IgG2a, V domains shown, from phage display of immunised mice; positive clones expressed recombinantly as murine IgG2a; VH/VL only; also called ACI-7067-R4A-G7-Ab-1) VH: EVQLEESGGGLVHPKGSLKLSCAASGFTFNSYAMHWVRQAPGKGLEWVARIRSKRSNYATYYADSVKDRFTISRDDSQSMVYLEMNNLEAEDTATYYCVRGGREAMDFWGQGTSVTVSS VL: QAVVTQESALTTSPGETVTLTCRSSTGAVTTSNYANWVQEKPDHLFTGLIGGTNNRAPGVPARFSGSLIGDKAALTITGAQTEDEAIYFCALWYSNHWVFGGGTKLTVL , which is 4760
